System: NK-92 (IL-2 2.5 ng/mL);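 further: normalised to DMSO-only wells as negative and benzethonium chloride as positive control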
ASSAY_METHOD_TEXT: percent inhibition of viability; higher = more inhibition
ASSAY_SETUP: 72 h; 1000 nM
MEASURE_NAME: percent inhibition of viability (%)
Kindly answer with a numeric value in %, unit omitted.

Ask: Fill in: percent inhibition of viability of Cc1ccc(NC(=O)c2ccc(CN3CCN(C)CC3)cc2)cc1Nc1nc(-c2cccnc2)cs1 [Masitinib] (max concentration tested 10000 nM) is ___
Result: -11.2

Ask: Fill in: percent inhibition of viability of O=C1CN2Cc3c(ccc(Cl)c3Cl)N=C2N1 [Anagrelide] (max concentration tested 10000 nM) is ___
Result: 11

Ask: Fill in: percent inhibition of viability of CS(=O)(=O)OCCCCOS(C)(=O)=O [Busulfan] (max concentration tested 100000 nM) is ___
Result: 8.88

Ask: Fill in: percent inhibition of viability of Cn1cc(-c2ccc3nnc(C(F)(F)c4ccc5ncccc5c4)n3n2)cn1 (max concentration tested 10000 nM) is ___
Result: 20

Ask: Fill in: percent inhibition of viability of CNC(=O)c1ccc(N2C(=S)N(c3ccc(C#N)c(C(F)(F)F)c3)C(=O)C23CCC3)cc1F [RD162] (max concentration tested 10000 nM) is ___
Result: -0.07

Ask: Fill in: percent inhibition of viability of CS(=O)(=O)c1ccc(C(=O)Nc2ccc(Cl)c(-c3ccccn3)c2)c(Cl)c1 [Vismodegib] (max concentration tested 10000 nM) is ___
Result: 17.8

Ask: Fill in: percent inhibition of viability of Nc1ncn([C@@H]2O[C@H](CO)[C@@H](O)[C@H]2O)c(=O)n1 [Azacitidine] (max concentration tested 10000 nM) is ___
Result: 23.1

Ask: Fill in: percent inhibition of viability of C=CCc1cccc(/C=N/NC(=O)CN2CCN(Cc3ccccc3)CC2)c1O [PAC-1] (max concentration tested 10000 nM) is ___
Result: 50.3

Ask: Fill in: percent inhibition of viability of CC(C)(C)c1cnc(CSc2cnc(NC(=O)C3CCNCC3)s2)o1 [SNS-032] (max concentration tested 10000 nM) is ___
Result: 98.8

Ask: Fill in: percent inhibition of viability of CNC(=O)c1cc(Oc2ccc(NC(=O)Nc3ccc(Cl)c(C(F)(F)F)c3)c(F)c2)ccn1 [Regorafenib] (max concentration tested 10000 nM) is ___
Result: 37.9

Ask: Fill in: percent inhibition of viability of CNC(=O)c1ccc(-c2cnc3ncc(Cc4ccc5ncccc5c4)n3n2)cc1F [NVP-INC280] (max concentration tested 1000 nM) is ___
Result: 7.6

Ask: Fill in: percent inhibition of viability of CS(=O)(=O)c1ccc(-c2cnc(N)c(C(=O)Nc3ccccc3)n2)cc1 [VE-821] (max concentration tested 10000 nM) is ___
Result: 36

Ask: Fill in: percent inhibition of viability of O=C(c1ccc(OCCN2CCCCC2)cc1)c1c(-c2ccc(O)cc2)sc2cc(O)ccc12 [Raloxifene] (max concentration tested 10000 nM) is ___
Result: -1.98
